# ASSAYED TARGET: T1, EphA2 SAM domain K956E (human, UniProt P29317 897-976, K956E)
# T1 sequence (looked up): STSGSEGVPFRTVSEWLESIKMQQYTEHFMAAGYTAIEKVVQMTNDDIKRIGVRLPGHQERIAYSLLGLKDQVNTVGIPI
# METHOD NOTES: ITC
pKd: −log10 of the molar value.
OUTCOME MEASURE: pKd

INSERT INTO assay_data (binder, result) VALUES
  ('SHIP2 SAM domain (wild type) (domain or fragment, human, UniProt O15357 1192-1258, looked up) RASGLGEAGMSAWLRAIGLERYEEGLVHNGWDDLEFLSDITEEDLEEAGVQDPAHKRLLLDTLQLSK', '< 4.30');
